# study_target: T1, human CD22-ECD-His protein (human, UniProt P20273 20-687)
# T1 construct: Made in house in HEK293E; also called hCD22-ECD-His; recombinant human CD22-ECD His protein; not shown: His tag
# T1 sequence: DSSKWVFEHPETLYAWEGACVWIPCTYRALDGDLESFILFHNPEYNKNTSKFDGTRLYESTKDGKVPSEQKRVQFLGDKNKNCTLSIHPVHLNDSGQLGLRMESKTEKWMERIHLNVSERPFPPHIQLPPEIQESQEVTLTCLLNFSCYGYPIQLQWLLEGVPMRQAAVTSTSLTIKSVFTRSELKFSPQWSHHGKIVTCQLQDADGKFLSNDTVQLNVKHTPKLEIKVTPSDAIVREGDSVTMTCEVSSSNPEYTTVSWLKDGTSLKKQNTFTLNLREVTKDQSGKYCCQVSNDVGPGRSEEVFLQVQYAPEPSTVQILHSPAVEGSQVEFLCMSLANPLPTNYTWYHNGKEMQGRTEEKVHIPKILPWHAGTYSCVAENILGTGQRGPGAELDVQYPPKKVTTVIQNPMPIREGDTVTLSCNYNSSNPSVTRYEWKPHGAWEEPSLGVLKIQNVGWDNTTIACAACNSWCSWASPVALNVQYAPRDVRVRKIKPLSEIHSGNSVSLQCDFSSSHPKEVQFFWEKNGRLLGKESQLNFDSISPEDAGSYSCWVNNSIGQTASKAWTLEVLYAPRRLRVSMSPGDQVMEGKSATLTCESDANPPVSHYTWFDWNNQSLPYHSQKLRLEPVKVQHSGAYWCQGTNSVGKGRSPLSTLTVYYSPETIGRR
# assay_method_text: ELISA, Ab 0.001 nM
Assign T whenever OD450 does not fall below 0.7 OD450; assign F whenever it does.

Confirm if OD450 reported for the binder F2.70.2 (antibody, human IgG1, lambda, V domains shown, Human-murine chimeric IgG1, lambda) VH: EVQLVESGGGLVKPGGSLKLSCAASGFTFSDYGMNWFRQAPEKGLEWVAYISRGSHTIYYADTVKGRFTISRDNAKNTLFLQMTSLRSNDTAMYYCVRMAGYYAMDYWGQGTSVTVSS VL: QLVLTQSSSASFSLGASAKLTCTLSSQHSSYIIEWYQQQPLKPPKYVMELKKDGSHSTGDGIPDRFSGSSSGADRYLSISNIQPEDEAIYICGVGDTIKEQFVYVFGGGTKVTVLG is 0.7 OD450 or above. F

Kindly determine if OD450 recorded for F2.205.9 (antibody, human IgG1, lambda, V domains shown, Human-murine chimeric IgG1, lambda) VH: QVTLKESGPGILQPSQTLSLTCSFSGFSLSTSGMGVGWIRQPSGKGLEWLAHIWWDDDEYYNPALKSRLTISKDTSKNQVFLKIANVDTADTATYYCARISIPYGYYDWFFDVWGTGTTVTVSA VL: QAVVTQESALTTSPGETVTLTCRSSTGAVTTRNYANWVQEKPDHLFTGLIGGTNNRAPGVPARFSGSLIGDKAALTITGAQTEDEAIYFCALWYSNHFIFGSGTKVTVLG is above or exactly 0.7 OD450. F

Exam item: decide whether the reported OD450 for F1.250.16 (antibody, human IgG1, kappa, V domains shown, Human-murine chimeric IgG1, kappa) VH: QVQLQQSGAEQVKPGASVKMSCKASGYTFTTYPIEWMKQNHGESLDWIGNIHPYNDDTEYNEKFKGKATLTVEKSSNTVFLELSRLTSDDSAVYYCVRGDYYNSRYWYFDVWGTGTTVTVSS VL: DIVMTQSQKFMSTTVGDRVSITCKAGQNVRTAVAWYQQKPGQSPKLLIYSASTRYIGVPERFTGSGSGTDFTLTITNMQSEDLADYFCQQYSSFPLTFGTGTKLELKR is at least 0.7 OD450. T

Identify whether the reported OD450 of the following binder is 0.7 OD450 or greater: F1.280.1 (antibody, human IgG1, kappa, V domains shown, Human-murine chimeric IgG1, kappa) VH: QIQLVQSGPELKKPGETVKISCKASGYTFTTYGMSWVKQTPGKGLTWMGWINTDSGVPTYADDFKRRFAFSLEASATTAYLQINNLKNEDTATYFCARGGPDYWGQGTTLTVSS VL: DILLTQSPATLSVTPGETVSLSCRASQSIYKNLHWYHQKSHRSPRLLIKYASDSISGIPSRFTGSGSGTNFTLSINSVKPEDEGIYYCLQGYIVPLTFGAGTKLELKR T
